Parameter tissue uptake at 1 h: see the listing below.
method.description: in vivo
details: male, athymic nude, mouse, in vivo, iv, 3.7 MBq, total radioactivity, PC-3 tumor uptake

compound	unit.text	tissue uptake at 1 h
CSCC[C@H](NC(=O)[C@H](CC(C)C)NC(=O)[C@H](Cc1c[nH]cn1)NC(=O)CNC(=O)[C@@H](NC(=O)[C@H](C)NC(=O)[C@H](Cc1c[nH]c2ccccc12)NC(=O)[C@H](CCC(N)=O)NC(=O)CCCCCNC(=O)CC[C@H](NC(=O)COCCOCCOCCNC(=O)c1ccc([18F])cc1)C(=O)NCCCC[C@@H]1NC(=O)[C@@H](Cc2ccc(O)cc2)NC(=O)[C@H](CC(=O)O)NC(=O)CNC(=O)[C@H](CCCNC(=N)N)NC1=O)C(C)C)C(N)=O [^18F-FB-PEG3-RGD-BBN]	%ID/g	4.41
CSCC[C@H](NC(=O)[C@H](CC(C)C)NC(=O)[C@H](Cc1c[nH]cn1)NC(=O)CNC(=O)[C@@H](NC(=O)[C@H](C)NC(=O)[C@H](Cc1c[nH]c2ccccc12)NC(=O)[C@H](CCC(N)=O)NC(=O)CCCCCNC(=O)CC[C@H](NC(=S)Nc1ccc(C[C@H]2CN(CC(=O)O)CCN(CC(=O)O)CCN2CC(=O)O)cc1)C(=O)NCCCC[C@@H]1NC(=O)[C@@H](Cc2ccc(O)cc2)NC(=O)[C@H](CC(=O)O)NC(=O)CNC(=O)[C@H](CCCNC(=N)N)NC1=O)C(C)C)C(N)=O [^68Ga-NOTA-RGD-BBN, metal not drawn]	%ID/g	5.26

---

method.description: MicroPET blood and normal organ uptake in T47D and MDA-MB-435 tumor-bearing nude mice
details: nude, mouse, muscle, iv, total radioactivity, Muscle uptake, average of eight mice, 4 h

compound	tissue uptake at 4 h, %ID/g
CSCC[C@H](NC(=O)[C@H](CC(C)C)NC(=O)[C@H](Cc1c[nH]cn1)NC(=O)CNC(=O)[C@@H](NC(=O)[C@H](C)NC(=O)[C@H](Cc1c[nH]c2ccccc12)NC(=O)[C@H](CCC(N)=O)NC(=O)CCCCCNC(=O)CC[C@H](NC(=S)Nc1ccc(C[C@H]2CN(CC(=O)O)CCN(CC(=O)O)CCN2CC(=O)O)cc1)C(=O)NCCCC[C@@H]1NC(=O)[C@@H](Cc2ccc(O)cc2)NC(=O)[C@H](CC(=O)O)NC(=O)CNC(=O)[C@H](CCCNC(=N)N)NC1=O)C(C)C)C(N)=O [^64Cu-NOTA-RGD-BBN, metal not drawn]	0.4

---

method.description: in vivo
Design: species or system mice
details: male, athymic nude, mouse, 0.74 MBq, total radioactivity, tumor uptake, biodistribution
property.measured: tissue uptake at 1 h (%ID/g)

compound	property.measured	endpoint.value
CSCC[C@H](NC(=O)[C@H](CC(C)C)NC(=O)[C@H](Cc1c[nH]cn1)NC(=O)CNC(=O)[C@@H](NC(=O)[C@H](C)NC(=O)[C@H](Cc1c[nH]c2ccccc12)NC(=O)[C@H](CCC(N)=O)NC(=O)CCCCCNC(=O)CC[C@H](NC(=S)Nc1ccc(C[C@H]2CN(CC(=O)O)CCN(CC(=O)O)CCN2CC(=O)O)cc1)C(=O)NCCCC[C@@H]1NC(=O)[C@@H](Cc2ccc(O)cc2)NC(=O)[C@H](CC(=O)O)NC(=O)CNC(=O)[C@H](CCCNC(=N)N)NC1=O)C(C)C)C(N)=O [^68Ga-NOTA-RGD-BBN, metal not drawn]	tissue uptake at 1 h	4.76
CSCC[C@H](NC(=O)[C@H](CC(C)C)NC(=O)[C@H](Cc1c[nH]cn1)NC(=O)CNC(=O)[C@@H](NC(=O)[C@H](C)NC(=O)[C@H](Cc1c[nH]c2ccccc12)NC(=O)[C@H](CCC(N)=O)NC(=O)CCCCCNC(=O)CC[C@H](NC(=O)COCCOCCOCCNC(=O)c1ccc([18F])cc1)C(=O)NCCCC[C@@H]1NC(=O)[C@@H](Cc2ccc(O)cc2)NC(=O)[C@H](CC(=O)O)NC(=O)CNC(=O)[C@H](CCCNC(=N)N)NC1=O)C(C)C)C(N)=O [^18F-FB-PEG3-RGD-BBN]	tissue uptake at 1 h	4

All values here come from patent US20100015058A1.
